Test system: T1, cCEACAM6, M. fascicularis CEACAM6 ECD (35-327) (Macaca fascicularis)
T1 construct: With 24 amino acid extension containing a His-Tag; also called cynomolgus CEACAM6
T1 chain: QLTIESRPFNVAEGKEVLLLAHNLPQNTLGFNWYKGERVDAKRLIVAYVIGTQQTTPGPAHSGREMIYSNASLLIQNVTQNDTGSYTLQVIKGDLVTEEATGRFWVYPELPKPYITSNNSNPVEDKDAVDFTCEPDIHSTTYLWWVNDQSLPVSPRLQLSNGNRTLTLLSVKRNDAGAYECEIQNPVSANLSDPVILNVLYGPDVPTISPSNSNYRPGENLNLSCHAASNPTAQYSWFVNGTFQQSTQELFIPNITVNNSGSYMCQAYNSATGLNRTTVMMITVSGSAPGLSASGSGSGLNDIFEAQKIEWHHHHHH
Assay summary: ELISA
Reported property: percentage of binding compared to full binding with cynomolgus CEACAM5
Output should be the measured figure followed by the unit it is expressed in.

Reference set, count: 4
chMAb2 (antibody, human IgG1, kappa, V domains shown, Chimeric, human IgG1, Ck isotype; also called MAb2-IgG1; chimeric MAb2) VH: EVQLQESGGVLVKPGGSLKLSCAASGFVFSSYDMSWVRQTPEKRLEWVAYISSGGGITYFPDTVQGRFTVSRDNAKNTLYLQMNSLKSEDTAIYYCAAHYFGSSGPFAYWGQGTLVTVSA VL: DIQMTQSPASLSASVGETVTITCRASENIFSYLAWYQQKQGKSPQLLVYNTKTLAEGVPSRFSGSGSGTQFSLKINSLQPEDFGSYYCQHHYGTPFTFGSGTKLEIKR | 0.3%
huMAb2-1 (antibody, V domains shown, Humanized MAb2 (VL1 + VH1) fused to human IgG1 and human Ckappa constant domains; also called MAb2_VL1VH1-IgG1; MAb2VL1VH1-IgG1) VH: EVQLQESGPGLVKPGGSLSLSCAASGFVFSSYDMSWVRQTPERRLEWVAYISSGGGITYFPSTVKGRFTVSRDNAKNTLYLQMNSLTSEDTAIYYCAAHYFGSSGPFAYWGQGTLVTVSA VL: DIQMTQSPASLSASVGDTVTITCRASENIFSYLAWYQQKPGKSPKLLVYNTKTLAEGVPSRFSGSGSGTQFSLTISSLQPEDFGSYYCQHHYGTPFTFGSGTKLEIK | 0.3%
huMAb2-3 (antibody, human IgG1, kappa, V domains shown, Humanized MAb2, human IgG1 / Ckappa; also called MAb2_VL1cVH1a-IgG1) VH: EVQLQESGPGLVKPGGSLSLSCAASGFVFSSYDMSWVRQTPERGLEWVAYISSGGGITYAPSTVKGRFTVSRDNAKNTLYLQMNSLTSEDTAVYYCAAHYFGSSGPFAYWGQGTLVTVSS VL: DIQMTQSPASLSASVGDRVTITCRASENIFSYLAWYQQKPGKSPKLLVYNTRTLAEGVPSRFSGSGSGTDFSLTISSLQPEDFATYYCQHHYGTPFTFGSGTKLEIKR | 0.4%
huMAb2-2 (antibody, V domains shown, Humanized MAb2 (VL1a + VH1a) fused to human IgG1 and human Ckappa constant domains; also called MAb2_VL1aVH1a-IgG1; MA2_VL1aVH1a-IgG1) VH: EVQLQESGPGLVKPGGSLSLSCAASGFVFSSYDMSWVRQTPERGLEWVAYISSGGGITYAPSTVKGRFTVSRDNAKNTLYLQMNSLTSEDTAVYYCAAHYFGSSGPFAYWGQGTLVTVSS VL: DIQMTQSPASLSASVGDRVTITCRASENIFSYLAWYQQKPGKSPKLLVYNTKTLAEGVPSRFSGSGSGTDFSLTISSLQPEDFATYYCQHHYGTPFTFGSGTKLEIK | 0.3%

Here's the next entry for you.
Kindly indicate its recorded percentage of binding compared to full binding with cynomolgus CEACAM5. Item: huMAb2-4 (antibody, human IgG1, kappa, V domains shown, Humanized MAb2, human IgG1 / Ckappa; also called MAb2_VL1d VH1-IgG1; MAb2_VL1dVH1-IgG1) VH: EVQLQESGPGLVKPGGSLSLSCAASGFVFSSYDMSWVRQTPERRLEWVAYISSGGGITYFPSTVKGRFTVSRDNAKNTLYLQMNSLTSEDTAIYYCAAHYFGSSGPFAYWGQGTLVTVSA VL: DIQMTQSPASLSASVGDTVTITCRASENIFSYLAWYQQKPGKSPKLLVYNTRTLAEGVPSRFSGSGSGTQFSLTISSLQPEDFGSYYCQHHYGTPFTFGSGTKLEIKR
0.3%
